biological target: T. gondii adenosine kinase (Toxoplasma gondii, UniProt Q9TVW2); experiment: biochemical; conditions: read-out: AppKi for inhibition of T. gondii adenosine kinase; 5 μM adenosine; ± range, at least two estimations
Sequence (Q9TVW2 whole entry): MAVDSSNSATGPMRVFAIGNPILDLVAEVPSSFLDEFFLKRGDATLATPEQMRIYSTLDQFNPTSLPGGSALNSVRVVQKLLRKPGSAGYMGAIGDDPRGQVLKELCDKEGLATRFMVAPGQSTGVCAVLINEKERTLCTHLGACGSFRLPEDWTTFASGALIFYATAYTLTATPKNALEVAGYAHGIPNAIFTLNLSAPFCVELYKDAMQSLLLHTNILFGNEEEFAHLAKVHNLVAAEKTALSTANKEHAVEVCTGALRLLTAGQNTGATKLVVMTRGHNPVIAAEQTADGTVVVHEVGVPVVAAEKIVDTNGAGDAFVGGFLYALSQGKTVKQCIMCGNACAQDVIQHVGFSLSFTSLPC
ENDPOINT: pKi
Numbers only, as −log10 of the molar value.

| MOLECULE | ENDPOINT | MEASUREMENT |
| --- | --- | --- |
| Nc1ncnc2c1ncn2C1O[C@H](CO)[C@H](O)[C@@H]1O (some centres unmarked) [Compound 107, Adenine lyxoside] | pKi | 2.89 |

# ---- query molecule ----
Suppose we examine the molecule Nc1ncnc2c1ncn2[C@@H]1C[C@H](CO)[C@@H](O)[C@H]1O (relative stereo) [Compound 112, Carbocyclic adenosine] ; what pKi value has been reported?
3.77

* * *

assay: Toxicity of compounds, MTT assay; format: cell-based, human; details: human, foreskin fibroblasts; 5 μM; MTT, 48 hours; read-out: percent survival of uninfected human fibroblasts
Would you kindly list viability at 48 h, 5 µM for each of these compounds?
Numbers only, in %.

Example results:
| COMPOUND | UNIT_LABEL | viability at 48 h, 5 µM |
| --- | --- | --- |
| Nc1ccc(CNc2ncnc3c2ncn3[C@@H]2O[C@H](CO)[C@@H](O)[C@H]2O)cc1 | % | 93.3 |
| CCc1nc(N)nc(N)c1-c1ccc(Cl)cc1 [Pyrimethamine, reference compound] | % | 104 |
| O=[N+]([O-])c1ccc(CSc2ncnc3c2ncn3[C@@H]2O[C@H](COP(=O)(O)O)[C@@H](O)[C@H]2O)cc1 | % | 103 |

# ---- query compound ----
Suppose we examine the compound O=[N+]([O-])c1ccc(CNc2ncnc3c2ncn3[C@@H]2O[C@H](CO)[C@@H](O)[C@H]2O)cc1 ; what viability at 48 h, 5 µM value has been reported?
104

* * *

test: Toxicity of compounds, MTT assay; format: cell-based, human; details: human, foreskin fibroblasts; 50 μM; MTT, 48 hours; read-out: percent survival of uninfected human fibroblasts
ENDPOINT: viability at 48 h, 50 µM (%)
Numbers only, in %.

Example results:
| COMPOUND | ENDPOINT | UNIT_LABEL | MEASUREMENT |
| --- | --- | --- | --- |
| O=[N+]([O-])c1ccc(CNc2ncnc3c2ncn3[C@@H]2O[C@H](CO)[C@@H](O)[C@H]2O)cc1 | viability at 48 h, 50 µM | % | 107 |
| OC[C@H]1O[C@@H](n2cnc3c(NCc4ccccc4)ncnc32)[C@H](O)[C@@H]1O [Compound 45, N^6 -Benzyladenosine] | viability at 48 h, 50 µM | % | 31 |
| Nc1ccc(S(=O)(=O)Nc2ncccn2)cc1 [Sulfadiazine, reference compound] | viability at 48 h, 50 µM | % | 102 |
| CCc1nc(N)nc(N)c1-c1ccc(Cl)cc1 [Pyrimethamine, reference compound] | viability at 48 h, 50 µM | % | 118 |
| Nc1ccc(CNc2ncnc3c2ncn3[C@@H]2O[C@H](CO)[C@@H](O)[C@H]2O)cc1 [Compound 46, N^6 -(p-Aminobenzyl)adenosine] | viability at 48 h, 50 µM | % | 101 |
| COc1ccc(C(=O)Nc2ncnc3c2ncn3[C@@H]2O[C@H](CO)[C@@H](O)[C@H]2O)cc1 [Compound 47] | viability at 48 h, 50 µM | % | 97.4 |

Can you give me viability at 48 h, 50 µM for all of these, one by one?
1. O=[N+]([O-])c1ccc(C[Se]c2ncnc3c2ncn3[C@@H]2O[C@H](CO)[C@@H](O)[C@H]2O)cc1 [Compound 24, 6-(p-Nitrobenzyl)selenopurine riboside]
2. O=[N+]([O-])c1ccc(CSc2ncnc3c2ncn3[C@@H]2O[C@H](COP(=O)(O)O)[C@@H](O)[C@H]2O)cc1 [NBMPR-P]
3. [N-]=[N+]=Nc1ccc(CNc2ncnc3c2ncn3[C@@H]2O[C@H](CO)[C@@H](O)[C@H]2O)cc1

[39.6, 96.1, 81.5]

Suppose we examine the compound O=C(Nc1ncnc2c1ncn2[C@@H]1O[C@H](CO)[C@@H](O)[C@H]1O)c1ccccc1 [Compound 44, N^6 -Benzoyladenosine] ; what viability at 48 h, 50 µM value has been reported?
99.3

* * *

Would you kindly list log10 Ki for each of these compounds?
molecular target: T. gondii adenosine kinase (Toxoplasma gondii, UniProt Q9TVW2); test: biochemical
Record value = log10 of Ki given in µM.

Example results:
| CHEMICAL_SMILES | log10 Ki |
| --- | --- |
| Nc1nc(Cl)nc2c1ncn2[C@@H]1O[C@H](CO)[C@@H](O)[C@H]1O | 2.94 |
| CCCCCCCCCCNc1ncnc2c1ncn2[C@@H]1O[C@H](CO)[C@@H](O)[C@H]1O | 2.58 |
| O=c1[nH]cnc2c1cnn2[C@@H]1O[C@H](CO)[C@@H](O)[C@H]1O | 4.18 |
| OC[C@H]1O[C@@H](n2ccc3c(Cl)ncnc32)[C@H](O)[C@@H]1O | 1.86 |
| CCNc1ncnc2c1ncn2[C@@H]1O[C@H](CO)[C@@H](O)[C@H]1O | 2.00 |

Can you give me log10 Ki for all of these, one by one?
1. OC[C@H]1O[C@@H](n2cnc3c(Br)ncnc32)[C@H](O)[C@@H]1O
2. C=CCNc1ncnc2c1ncn2[C@@H]1O[C@H](CO)[C@@H](O)[C@H]1O
3. OC[C@H]1O[C@@H](n2cnc3c(S)ncnc32)[C@H](O)[C@@H]1O

1. 1.45
2. 2.34
3. 3.72

* * *

molecular target: T. gondii adenosine kinase (Toxoplasma gondii); assay: biochemical
ENDPOINT: log10(Ki) (log10 of the value in µM)
Record value = log10 of Ki given in µM.

| COMPOUND | SYSTEM | ENDPOINT | MEASUREMENT |
| --- | --- | --- | --- |
| CNc1ncnc2c1c(C(N)=S)cn2[C@@H]1O[C@H](CO)[C@@H](O)[C@H]1O [Compound 71] | T. gondii adenosine kinase (Toxoplasma gondii) | log10(Ki) | 2.18 |
| NC(=NO)c1cn([C@@H]2O[C@H](CO)[C@@H](O)[C@H]2O)c2ncnc(N)c12 [Compound 56] | T. gondii adenosine kinase (Toxoplasma gondii) | log10(Ki) | 2.30 |
| NNc1ncnc2c1ccn2[C@@H]1O[C@H](CO)[C@@H](O)[C@H]1O [Compound 69, 6-Hydrazino-7-deazapurine riboside] | T. gondii adenosine kinase (Toxoplasma gondii) | log10(Ki) | 2.26 |

Can you give me log10(Ki) for all of these, one by one?
1. CC1(C)O[C@@H]2[C@H](O1)[C@@H](CO)O[C@H]2n1cnc2c(=S)[nH]cnc21 [Compound 122]
2. Nc1ncnc2c1nnn2[C@@H]1O[C@H](CO)[C@@H](O)[C@H]1O [Compound 57]
3. Nc1ncnc2c1ncn2[C@@H]1O[C@H](CO)[C@@H](O)[C@@H]1O [Compound 86, Adenine arabinoside (ara-A)]

[3.59, 1.36, 3.48]

Suppose we examine the compound Nc1ncnc2c1ncn2[C@@H]1C=C(CO)[C@@H](O)[C@H]1O [Compound 114, Neplanocin A] ; what log10(Ki) value has been reported?
1.57

* * *

Biological target: T. gondii adenosine kinase (Toxoplasma gondii)
Test: biochemical
Experimental: Preparation of cytosol extracts. […] Adenosine kinase assay. T. gondii adenosine kinase activity was measured by following the formation of [^14 C]AMP from [^14 C]adenosine and ATP. […] Determination and significance of AppKi values. […] It should be noted, however, that the type of inhibition (i.e., competitive, noncompetitive, or uncompetitive) produced by the compounds was not determined, nor were the compounds evaluated as substrates for T. gondii adenosine kinase.
Note to self: class = bucket of Ki, per low band (below 800 µM), middle band (800 µM to below 4000 µM), high band (4000 µM or more)

Field: example entries. Status: answers known.
| MOLECULE | ASSIGNED_LABEL |
| --- | --- |
| OC[C@H]1O[C@@H](n2ncc3cncnc32)[C@H](O)[C@@H]1O [Compound 75, 8-Aza-7-deazapurine riboside] | high band |
| Nc1ncnc2c1ncn2[C@@H]1O[C@H](CO)[C@H](O)[C@H]1O [Compound 92, Adenine xyloside] | middle band |
| Nc1ncnc2c1ncn2[C@H]1O[C@H](CO)[C@@H](O)[C@H]1O | high band |
| CCCCCCNc1ncnc2c1ncn2[C@@H]1O[C@H](CO)[C@@H](O)[C@H]1O | low band |
| Nc1ncnc2c1cnn2[C@@H]1O[C@H](CO)[C@@H](O)[C@H]1O | middle band |

Quick check: band for C[C@H](Cc1ccccc1)Nc1ncnc2c1ncn2[C@@H]1O[C@H](CO)[C@@H](O)[C@H]1O
low band

Quick check: band for Nc1ncnc2c1ncn2[C@@H]1O[C@H](CO)C[C@H]1O [Compound 90, 3'-Deoxyadenosine (Cordycepin)]
middle band

Quick check: band for CCCCNc1ncnc2c1ncn2[C@@H]1O[C@H](CO)[C@@H](O)[C@H]1O
low band

Quick check: band for Nc1ncnc2c1ncn2[C@H]1C[C@H](O)[C@@H](CO)O1
high band
